Field: EC50. Provide a value for each of the compounds that follow.
target: PKC-α (Bos taurus); construct: expressed in transfected cells; host or cells: Saccharomyces cerevisiae; assay: Yeast PKC assay, PKC-α; type: cell-based, yeast (Saccharomyces cerevisiae); details: yeast growth inhibition, 50% of maximal effect of PMA; mean ± SEM, four experiments; ND = maximal response lower than 50% growth inhibition; read-out: EC50 (nM) PKC-α
Give the quantity in nM, number only.

Item CC(C)C1=C(O)C(=O)C2=C(C=C[C@H]3C(C)(C)CCC[C@]23C)C1=O [DeRoy, 6,7-dehydroroyleanone] has what recorded EC50?
15

Item CCC(=O)OC1=C(C(C)C)C(=O)C2=C(C1=O)C1(C)CCCC(C)(C)C1C(OC(=O)CC)C2OC(C)=O (stereo not drawn) [RoyPr] has what recorded EC50?
195

I would be grateful if you could share the reported EC50 for CC(=O)OC1C2=C(C(=O)C(O)=C(C(C)C)C2=O)C2(C)CCCC(C)(C)C2C1O (stereo not drawn) [Roy, 7α-acetoxy-6β-hydroxyroyleanone] .
350

---

Molecular target: PKC-ε (Homo sapiens)
Construct: expressed in transfected cells; host or cells: Saccharomyces cerevisiae
Sequence (Q02156 whole entry): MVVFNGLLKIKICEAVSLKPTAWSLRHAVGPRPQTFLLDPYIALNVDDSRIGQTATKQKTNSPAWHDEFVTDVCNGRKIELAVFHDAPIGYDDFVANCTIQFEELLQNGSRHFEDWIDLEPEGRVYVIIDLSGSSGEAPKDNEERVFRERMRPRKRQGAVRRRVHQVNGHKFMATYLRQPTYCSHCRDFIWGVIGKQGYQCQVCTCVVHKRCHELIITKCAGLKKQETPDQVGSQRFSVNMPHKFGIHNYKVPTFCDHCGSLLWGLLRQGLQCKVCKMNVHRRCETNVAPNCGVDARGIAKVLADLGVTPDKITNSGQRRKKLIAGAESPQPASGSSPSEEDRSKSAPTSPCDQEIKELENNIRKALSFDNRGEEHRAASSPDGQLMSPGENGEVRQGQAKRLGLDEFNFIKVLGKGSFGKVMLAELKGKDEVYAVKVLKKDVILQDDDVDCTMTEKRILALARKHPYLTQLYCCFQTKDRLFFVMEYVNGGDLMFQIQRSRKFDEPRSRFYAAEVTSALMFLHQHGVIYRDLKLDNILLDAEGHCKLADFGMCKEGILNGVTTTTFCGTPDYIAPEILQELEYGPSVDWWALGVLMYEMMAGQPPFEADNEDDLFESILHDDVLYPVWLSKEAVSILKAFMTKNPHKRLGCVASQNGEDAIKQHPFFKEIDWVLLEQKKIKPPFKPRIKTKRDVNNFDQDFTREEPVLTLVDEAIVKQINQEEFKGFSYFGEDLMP
Assay: Yeast PKC assay, PKC-ε
Assay type: cell-based
Settings: yeast growth inhibition, 50% of maximal effect of PMA; mean ± SEM, four experiments; ND = maximal response lower than 50% growth inhibition; read-out: EC50 (nM) PKC-ε
Method: PKC isoforms are key targets for cancer therapy due to their significant roles in cancer development and progression. The selective-PKC-δ activation observed for RoyBz is well established. Nonetheless, it is important to understand the effect of Roy on PKC isoforms. […] The royleanones Roy, RoyBz and RoyPr were tested on the yeast assay as reported in[3]. […] Yeast growth was analyzed by counting the number of colony-forming units, after 2 days incubation at 30 °C. […]
Could you please report measured EC50 for the items listed next?
The figure you give is taken to be in nM; do not add the unit.

Name the reported EC50 value associated with the compound CC(C)C1=C(O)C(=O)C2=C(C=C[C@H]3C(C)(C)CCC[C@]23C)C1=O [DeRoy, 6,7-dehydroroyleanone]
5.8

Return reported EC50; argument: CC(=O)OC1C2=C(C(=O)C(O)=C(C(C)C)C2=O)C2(C)CCCC(C)(C)C2C1O (stereo not drawn) [Roy, 7α-acetoxy-6β-hydroxyroyleanone]
994

What does the data say about its EC50? Entry: CCC(=O)OC1=C(C(C)C)C(=O)C2=C(C1=O)C1(C)CCCC(C)(C)C1C(OC(=O)CC)C2OC(C)=O (stereo not drawn)
770

---

Biological target: PKC-ζ (Mus musculus)
Construct: expressed in transfected cells; host or cells: Saccharomyces cerevisiae
Sequence (Q02956 1-592): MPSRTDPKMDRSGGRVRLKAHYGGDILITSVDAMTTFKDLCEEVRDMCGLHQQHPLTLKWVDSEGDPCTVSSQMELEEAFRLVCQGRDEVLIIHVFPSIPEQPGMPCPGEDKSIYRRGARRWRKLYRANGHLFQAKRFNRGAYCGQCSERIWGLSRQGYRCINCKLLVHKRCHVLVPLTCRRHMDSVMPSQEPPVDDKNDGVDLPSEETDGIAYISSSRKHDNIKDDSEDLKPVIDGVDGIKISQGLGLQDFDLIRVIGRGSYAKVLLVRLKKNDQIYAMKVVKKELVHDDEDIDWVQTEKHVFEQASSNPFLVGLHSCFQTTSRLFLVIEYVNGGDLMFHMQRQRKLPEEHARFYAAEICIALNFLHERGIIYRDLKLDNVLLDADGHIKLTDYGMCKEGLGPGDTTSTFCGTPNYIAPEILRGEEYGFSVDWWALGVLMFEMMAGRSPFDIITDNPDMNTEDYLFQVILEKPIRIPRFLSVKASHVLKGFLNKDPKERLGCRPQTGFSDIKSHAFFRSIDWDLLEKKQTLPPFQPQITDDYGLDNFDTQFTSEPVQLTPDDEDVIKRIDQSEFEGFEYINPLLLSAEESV
Assay: Yeast PKC assay, PKC-ζ
Assay type: cell-based
endpointName: pEC50
Answer as the number alone; pEC50 is minus log10 of concentration in mol/L.

State the recorded pEC50 for this entry: CC(C)C1=C(O)C(=O)C2=C(C=C[C@H]3C(C)(C)CCC[C@]23C)C1=O [DeRoy, 6,7-dehydroroyleanone]
7.36

---

Record form. Attribute: EC50. Fill in for each entry.
Molecular target: PKC-ζ (Mus musculus)
Construct: expressed in transfected cells; host or cells: Saccharomyces cerevisiae
Test: Yeast PKC assay, PKC-ζ
Type: cell-based
Details: yeast growth inhibition, 50% of maximal effect of ARA; mean ± SEM, four experiments; ND = maximal response lower than 50% growth inhibition; read-out: EC50 (nM) PKC-ζ
Experimental: PKC isoforms are key targets for cancer therapy due to their significant roles in cancer development and progression. The selective-PKC-δ activation observed for RoyBz is well established. Nonetheless, it is important to understand the effect of Roy on PKC isoforms. […] The royleanones Roy, RoyBz and RoyPr were tested on the yeast assay as reported in[3]. […] Yeast growth was analyzed by counting the number of colony-forming units, after 2 days incubation at 30 °C. […]
Note: unit nM is implicit; provide only the numeric part.

Query the reported EC50 for PKC-ζ (Mus musculus); item: CCCCC/C=C\C/C=C\C/C=C\C/C=C\CCCC(=O)O [ARA, arachidonic acid, reference compound]
205

Query the reported EC50 for PKC-ζ (Mus musculus); item: CC(=O)OC1C2=C(C(=O)C(O)=C(C(C)C)C2=O)C2(C)CCCC(C)(C)C2C1O (stereo not drawn) [Roy, 7α-acetoxy-6β-hydroxyroyleanone]
4110
